- SYSTEM NAME: PRSET-7 (Homo sapiens, UniProt Q9NQR1)
- Sequence (Q9NQR1 1-393): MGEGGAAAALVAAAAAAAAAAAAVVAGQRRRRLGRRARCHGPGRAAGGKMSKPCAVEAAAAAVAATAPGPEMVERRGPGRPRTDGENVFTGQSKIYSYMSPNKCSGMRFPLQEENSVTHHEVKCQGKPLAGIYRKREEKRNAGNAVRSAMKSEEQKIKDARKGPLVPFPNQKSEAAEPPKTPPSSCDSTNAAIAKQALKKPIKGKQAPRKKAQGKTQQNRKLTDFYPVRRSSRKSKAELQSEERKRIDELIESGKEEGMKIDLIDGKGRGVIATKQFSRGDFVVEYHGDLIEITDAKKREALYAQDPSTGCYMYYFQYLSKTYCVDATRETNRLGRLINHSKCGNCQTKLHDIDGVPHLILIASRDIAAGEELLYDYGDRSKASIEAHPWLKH
- EXPERIMENT SUMMARY: HKMT-inhibitor (HMT) assay, PRSET-7
- CONDITION SET: recombinant HKMT, [3H]SAM, histone octamers or oligonucleosomes, average of duplicate
pIC50: −log10 of the molar value.
MEASUREMENT TYPE: pIC50

| COMPOUND | RECORDED NUMBER |
| --- | --- |
| Nc1cc(S(=O)(=O)O)cc2cc(S(=O)(=O)O)cc(O)c12 [H-acid] | 5.42 |
| Cc1cc(O)c(C(C)C)cc1C1(c2cc(C(C)C)c(O)cc2C)OC(=O)c2ccccc21 [Thymolphthalein, thymolphthalein] | 5.05 |

Value source: patent US20090306201A1
